Where these numbers come from: patent US7169942B2

compounds and their reported pKi
SUBJECT_OF_TEST: human CB1 receptor (Homo sapiens)
Construct: purchased Perkin-Elmer Life Sciences, Inc. Lot #1929; host or cells: HEK293 (HEK293 EBNA according to b236 for compounds 33-36)
Sequence (P21554 whole entry): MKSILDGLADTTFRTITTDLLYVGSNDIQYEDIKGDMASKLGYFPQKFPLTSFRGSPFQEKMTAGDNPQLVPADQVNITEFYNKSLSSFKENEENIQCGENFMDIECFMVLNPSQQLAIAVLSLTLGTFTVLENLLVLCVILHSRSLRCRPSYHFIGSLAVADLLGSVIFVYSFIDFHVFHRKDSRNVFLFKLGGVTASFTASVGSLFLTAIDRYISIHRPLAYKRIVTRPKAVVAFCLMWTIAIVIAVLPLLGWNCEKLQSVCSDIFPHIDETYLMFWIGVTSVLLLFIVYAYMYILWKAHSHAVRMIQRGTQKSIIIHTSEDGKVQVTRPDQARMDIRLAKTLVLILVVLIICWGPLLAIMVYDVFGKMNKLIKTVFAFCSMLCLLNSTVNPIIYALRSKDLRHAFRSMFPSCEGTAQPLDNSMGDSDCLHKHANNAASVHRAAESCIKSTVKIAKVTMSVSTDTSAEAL
PROCEDURE_TEXT: biochemical
Type: binding
PARTICULARS: Table 8; SEM in parentheses, n≧2 in triplicate; read-out: CB1 Ki
pKi: −log10 of the molar value.

{"COMPOUND": "CC1=CCC2C(C1)c1c(O)cc(C(C)(C)c3ccc(C)cc3)cc1OC2(C)C (stereo not drawn) [Compound 50]", "pKi": 8.67}
{"COMPOUND": "CC1=CCC2C(C1)c1c(O)cc(C(C)(C)c3cccc(C)c3)cc1OC2(C)C (stereo not drawn) [Compound 51]", "pKi": 8.60}
{"COMPOUND": "CC1=CCC2C(C1)c1c(O)cc(C(C)(C)c3cccc(Cl)c3)cc1OC2(C)C (stereo not drawn) [Compound 53]", "pKi": 7.73}
